Data origin: patent US10004701B2

Entries and their fold induction at 50 µM
system: E. coli; experiment: AK assay 384-well format, Prestwick library screening; type: cell-based, Escherichia coli; details: Escherichia coli, 3 h; planktonic E. coli; 50 μM final drug concentration; 384-well; cutoff for positive-scoring molecules 3-fold increase; read-out: AK-based Prestwick Library Screening Results: E. coli (increase in extracellular AK activity)
Where a name gives a salt, the structure may show the parent alone.

- molecule: "CCCN(CCC)C(=O)C(CCC(=O)O)NC(=O)c1ccccc1 (stereo not shown) [Proglumide]"
  fold induction at 50 µM: 1.3
- molecule: "[H]/N=C(\\N/C(=N/[H])NCCCCCCNC(=N)NC(=N)Nc1ccc(Cl)cc1)Nc1ccc(Cl)cc1 [Chlorhexidine, chlorhexidine, reference compound]"
  fold induction at 50 µM: 50.1
- molecule: "O=C(Nc1ccccc1)OCC(CN1CCCCC1)OC(=O)Nc1ccccc1 (stereo not shown) [Diperodon hydrochloride]"
  fold induction at 50 µM: 1.4
- molecule: "NCCc1c[nH]c2ccc(O)cc12 [Serotonin hydrochloride]"
  fold induction at 50 µM: 0.8

----------
test system: S. aureus strain USA300-0114; test: AK assay 384-well format, Prestwick library screening; assay type: cell-based, Staphylococcus aureus; conditions: Staphylococcus aureus, USA300, 3 h; 50 μM final drug concentration; planktonic; cutoff for positive 3-fold increase; read-out: AK-based Prestwick Library Screening Results, S. aureus (fold increase in extracellular AK activity)
Counter-ions that a name gives are not always drawn.
Would you please tag the item Satisfied when its fold induction at 50 µM is 1 or above, and Not satisfied when it is below?

- molecule: "NC[C@H]1O[C@H](O[C@H]2[C@H](O)[C@@H](O[C@H]3O[C@H](CO)[C@@H](O)[C@H](N)[C@H]3O)[C@H](N)C[C@@H]2N)[C@H](N)C[C@@H]1O"
  class: "Satisfied"
- molecule: "Cc1nc2ccccn2c(=O)c1CCN1CCC(C(=O)c2ccc(F)cc2)CC1"
  class: "Satisfied"
- molecule: "COc1ccc(CN2CCNCC2)c(OC)c1OC [Trimetazidine dihydrochloride]"
  class: "Satisfied"
- molecule: "CC[C@H]1OC(=O)[C@H](C)[C@@H](O[C@H]2C[C@@](C)(OC)[C@@H](O)[C@H](C)O2)[C@H](C)[C@@H](O[C@@H]2O[C@H](C)C[C@H](N(C)C)[C@H]2O)[C@](C)(O)C[C@@H](C)[C@@H]2N[C@@H](COCCOC)O[C@H]([C@H]2C)[C@]1(C)O"
  class: "Satisfied"
- molecule: "CC1=NCCc2c1[nH]c1cc(O)ccc21 [Harmalol hydrochloride dihydrate]"
  class: "Not satisfied"
- molecule: "CCN(CC)CCOCCOC(=O)C1(c2ccccc2)CCCC1 [Carbetapentane citrate]"
  class: "Satisfied"
- molecule: "COc1ccc(NS(=O)(=O)c2ccc(N)cc2)nn1"
  class: "Not satisfied"
- molecule: "Cc1cccc(C)c1NC(=O)CN1CCN(CCCC(c2ccc(F)cc2)c2ccc(F)cc2)CC1"
  class: "Satisfied"
- molecule: "O=C1C[C@@H](c2ccc(O)cc2)Oc2cc(O)cc(O)c21"
  class: "Not satisfied"
- molecule: "CNCC(O)c1ccc(OC(=O)C(C)(C)C)c(OC(=O)C(C)(C)C)c1 (stereo not shown) [Dipivefrin hydrochloride]"
  class: "Satisfied"

----------
tested on: E. coli; assay: AK assay 384-well format, Prestwick library screening; type: cell-based, Escherichia coli; conditions: Escherichia coli, 3 h, planktonic E. coli; 50 μM final drug concentration; […]; read-out: AK-based Prestwick library screening result, E. coli (fold increase in extracellular AK activity)
Counter-ions that a name gives are not always drawn.
Entries and their fold induction at 50 µM
measurement-name: fold induction at 50 µM

- compound: "O=C(NCNC(=O)NC1C(=O)NC(=O)N1CO)NC1C(=O)NC(=O)N1CO (stereo not shown)"
  recorded-result: 0.9
- compound: "COc1cc(-c2ccc(=O)[nH]n2)ccc1OC(F)F"
  recorded-result: 0.6
- compound: "CC1(C)S[C@@H]2[C@H](NC(=O)[C@H](N)c3ccccc3)C(=O)N2[C@H]1C(=O)OC1OC(=O)c2ccccc21 (stereo partly shown) [Talampicillin hydrochloride]"
  recorded-result: 15.2
- compound: "CN(C)[C@@H]1C(O)=C(C(=O)NCNCCCC[C@H](N)C(=O)O)C(=O)[C@@]2(O)C(O)=C3C(=O)c4c(O)cccc4[C@@](C)(O)[C@H]3C[C@@H]12"
  recorded-result: 0.8

----------
system: A. baumannii strain 98-37-09; assay: AK assay 384-well format, Prestwick library screening; assay type: cell-based, Acinetobacter baumannii; conditions: Acinetobacter baumannii, 983709, 3 h, planktonic A. baumannii; 50 μM final drug concentration; 384-well; […]; read-out: AK-based Prestwick Library Screening Results: A. baumannii (increase in extracellular AK activity)
Counter-ions that a name gives are not always drawn.

- compound: "COC1=CC(=O)O[C@@H](/C=C/c2ccccc2)C1 [Kawain]"
  fold induction at 50 µM: 1.2
- compound: "NCCc1c[nH]c2ccc(O)cc12 [Serotonin hydrochloride]"
  fold induction at 50 µM: 0.6
- compound: "CN1CCCN(C(c2ccccc2)c2ccc(Cl)cc2)CC1 (stereo not shown) [Homochlorcyclizine dihydrochloride]"
  fold induction at 50 µM: 1.2
- compound: "CN(C)CCC(c1ccccc1)c1ccccn1 (stereo not shown) [Pheniramine maleate]"
  fold induction at 50 µM: 1

----------
test system: K. pneumoniae; assay: AK assay 384-well format, Prestwick library screening; format: cell-based, Klebsiella pneumoniae; conditions: Klebsiella pneumoniae, 3 h; planktonic K. pneumoniae; 50 μM final drug concentration; cutoff for positive-scoring molecules 3-fold increase; read-out: AK-based Prestwick Library Screening Results, K. pneumoniae (increase in extracellular AK activity)
Where a name gives a salt, the structure may show the parent alone.
Entries and their fold induction at 50 µM

- molecule: "CCCc1cc(=O)[nH]c(=S)[nH]1"
  fold induction at 50 µM: 0.6
- molecule: "O=c1[nH]c2ccccc2n1CCCN1CCC(n2c(=O)[nH]c3cc(Cl)ccc32)CC1"
  fold induction at 50 µM: 0.6
- molecule: "CC(=O)Nc1ccc(OCC(O)CNC(C)C)cc1 (stereo not drawn)"
  fold induction at 50 µM: 0.5
- molecule: "CCc1cccc(CC)c1NC(=O)CN(CC(=O)O)CC(=O)O"
  fold induction at 50 µM: 0.8
- molecule: "CN(C)C(=O)Oc1cc(OC(=O)N(C)C)cc(C(O)CNC(C)(C)C)c1 (stereo not drawn) [Bambuterol hydrochloride]"
  fold induction at 50 µM: 0.9
- molecule: "NC(=O)N/N=C/c1ccc([N+](=O)[O-])o1"
  fold induction at 50 µM: 0.2
- molecule: "CCOC(=O)Oc1c(OC)cc(C(=O)O[C@@H]2C[C@@H]3CN4CCc5c([nH]c6cc(OC)ccc56)[C@H]4C[C@@H]3[C@H](C(=O)OC)[C@H]2OC)cc1OC"
  fold induction at 50 µM: 0.5
- molecule: "COc1ccc(Cc2nccc3cc(OC)c(OC)cc23)cc1OC [Papaverine hydrochloride]"
  fold induction at 50 µM: 0.8
- molecule: "COc1ccc(-c2ccc(=N)n(CCCC(=O)O)n2)cc1"
  fold induction at 50 µM: 0.8
- molecule: "CN1CCN(C2=Nc3cc(Cl)ccc3Nc3ccccc32)CC1"
  fold induction at 50 µM: 0.8
- molecule: "CC1(C)S[C@@H]2[C@H](NC(=O)[C@H](N)c3ccc(O)cc3)C(=O)N2[C@H]1C(=O)O"
  fold induction at 50 µM: 0.7
- molecule: "CC[C@H](C)C(=O)O[C@H]1C[C@@H](C)C=C2C=C[C@H](C)[C@H](CC[C@@H]3C[C@@H](O)CC(=O)O3)[C@H]21"
  fold induction at 50 µM: 0.8
- molecule: "COC(=O)[C@@H]1[C@H]2C[C@H]3c4[nH]c5ccccc5c4CCN3C[C@@H]2CC[C@@H]1O [Yohimbine hydrochloride]"
  fold induction at 50 µM: 0.8
- molecule: "O=C(NCCN1CCOCC1)c1ccc(Cl)cc1 [Moclobemide]"
  fold induction at 50 µM: 0.6
- molecule: "COc1cc(OC)c(C(=O)CCCN2CCCC2)c(OC)c1 [Buflomedil hydrochloride]"
  fold induction at 50 µM: 0.6
- molecule: "CNc1ncnc2c1ncn2[C@@H]1O[C@H](CO)[C@@H](O)[C@H]1O"
  fold induction at 50 µM: 0.5
- molecule: "CCN(CC)CCNc1ccc(CO)c2sc3ccccc3c(=O)c12"
  fold induction at 50 µM: 0.7
- molecule: "CC(C(=O)O)c1ccc(C(=O)c2ccccc2)s1 (stereo not drawn)"
  fold induction at 50 µM: 0.5
- molecule: "CCCCNc1ccc(C(=O)OCCN(C)C)cc1 [Tetracaine hydrochloride]"
  fold induction at 50 µM: 0.6
- molecule: "CCN[C@H]1CN(CCCOC)S(=O)(=O)c2sc(S(N)(=O)=O)cc21 [Brinzolamide]"
  fold induction at 50 µM: 0.9
- molecule: "CC(=O)N(CC(O)CO)c1c(I)c(C(=O)NCC(O)CO)c(I)c(C(=O)NCC(O)CO)c1I (stereo not drawn) [Iohexol]"
  fold induction at 50 µM: 0.7
- molecule: "CCOC(=O)n1ccn(C)c1=S"
  fold induction at 50 µM: 0.7
- molecule: "CC(CCc1ccc(O)cc1)NCCc1ccc(O)c(O)c1 (stereo not drawn) [Dobutamine hydrochloride]"
  fold induction at 50 µM: 0.8
- molecule: "CC(Cc1cccc(C(F)(F)F)c1)NCCOC(=O)c1ccccc1 (stereo not drawn) [Benfluorex hydrochloride]"
  fold induction at 50 µM: 1.1
- molecule: "O=C(/C=C/c1ccc(O)c(O)c1)O[C@@H]1C[C@](O)(C(=O)O)C[C@@H](O)[C@H]1O"
  fold induction at 50 µM: 0.7
- molecule: "C=C(C)[C@@H]1CC[C@]2(C(=O)O)CC[C@]3(C)[C@H](CC[C@@H]4[C@@]5(C)CC[C@H](O)C(C)(C)[C@@H]5CC[C@]43C)[C@@H]12"
  fold induction at 50 µM: 0.5
- molecule: "CN(C)CC/C=C1/c2ccccc2Sc2ccc(Cl)cc21 [Chlorprothixene hydrochloride]"
  fold induction at 50 µM: 0.8
